Entry source: PubChem BioAssay AID463

- protocol_notes: cytotoxicity toward Jurkat T cells, primary screen, cytotoxicity control, cell-based, Jurkat E6.1, 60K MLSMR library (AID 463)
- conditions: Jurkat E6.1 viability, ATP luminescence, 48 h; at 4 µM
About 710 (1.3%) of roughly 56,000 compounds were called active.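 Rule for the calls: active = inhibition above the mean inhibition of all tested compounds plus 3 SD (cut at about 28% in these data); inactive = the rest.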 Many of the other results were omitted from the sample, so actives are more common in it than they were.
Labels: active, inactive

compound	label
COCCNCCOCCOc1cccc(OC)c1	inactive
COc1ccc(N2C(=O)CN=C2Nc2cccc(C)c2C)cc1OC	inactive
Cc1cc(C(=O)OCC(=O)NCc2ccco2)c(C)n1-c1ccccc1	active
COc1ccccc1-n1c(CNC(=O)c2ccccc2)nnc1SCC(=O)Nc1nnc(C)s1	inactive
O=C(O)Cc1ccc(NC(=O)C2CCCCC2C(=O)O)cc1 (stereo not drawn)	inactive
C=CCn1cnc2scc(-c3ccccc3)c2c1=O	inactive
CC(C)NS(=O)(=O)c1ccc(NC(=O)c2cccnc2)cc1	inactive
CCOC(=O)c1cnc(SCC(=O)NCc2ccco2)nc1N	inactive
COc1ccc(CCNS(=O)(=O)c2ccc(C(=O)NCc3ccco3)cc2)cc1OC	inactive
CN(C)c1ccnc2sc3c(=O)n(Cc4ccccc4)cnc3c12	inactive
O=C(CSc1nnc(-c2cccs2)n1-c1ccccc1)NCc1ccco1	inactive
COc1ccc2[nH]c3ccc(OC)cc3c2c1	inactive
COc1ccc(-n2nnc3c(=O)n(CC(=O)OCc4ccccc4)cnc32)cc1	inactive
COc1ccc(N(Cc2cc3cc(OC)ccc3[nH]c2=O)S(C)(=O)=O)cc1	inactive
COc1nc(Oc2ccc(=O)n(C)n2)nc(N(C)C)n1	inactive
CCCOC(=O)c1[nH]c2c(c1C)C(=O)CC(c1cc(OC)c(OC)c(OC)c1)C2 (stereo not drawn)	active
O=C(CSc1nc2c(cnn2-c2ccc(F)cc2)c(=O)[nH]1)N1CCCCCC1	inactive
CCOc1c(OC)cc(C2C(C#N)=C(N)Oc3n[nH]c(-c4ccncc4)c32)cc1OC (stereo not drawn)	inactive
CCOC(=O)C1=C(C)NC(C)=C(C(=O)OCC)C1C1=COCCO1	inactive
CCOC(=O)N1CCN(S(=O)(=O)c2ccc(C(=O)Nc3ccc(F)cc3F)cc2)CC1	active
COc1ccc(OC)c2c1sc(=NC(=O)CN1C(=O)CCC1=O)n2C	inactive
COc1cc(Cl)c(S(=O)(=O)n2cnc(C)c2)cc1Cl	inactive
Cc1ccc(S(=O)(=O)Nc2ccc3ncccc3c2)cc1	active
